- Tested on: SW480
- assaySummary: cell viability (CellTiter-Glo) relative to plate median (fraction of plate median); higher = more viable cells
- recordedConditions: 5 µM; treatment time 24 h; reporter: 7TFP
Catalogue of compounds with associated cell viability

Examples with answers:
O=C(/C=C/C=C/c1ccc2c(c1)OCO2)N1CCCCC1	1.03
O=C1O[C@H](CO)[C@@H](O)[C@H](O)[C@H]1O	1.08
O=c1n(CCCN2CCN(c3cccc(Cl)c3)CC2)nc2ccccn12	1.01
COc1ccc(C=CC(=O)O)cc1OC	1.02

Request: Quickly give me recorded cell viability for "FC(F)(F)COCC(F)(F)F"
Response: 0.99

Request: Given "C/C=C(\C)C(=O)[C@@H](C)/C=C(\C)[C@H]1O[C@@](O)([C@@](O)(CC)C(=O)N[C@@H]2C(=O)N3NCCC[C@@H]3C(=O)N(O)[C@@H](C)C(=O)N(C)[C@H](C)C(=O)N3NCCC[C@H]3C(=O)N[C@H]([C@H](C)O)C(=O)O[C@H]2C(C)C)CC[C@@H]1C" , respond with its cell viability.
Response: 1.08

====

Below is a list of entries, each paired with its recorded cell viability value.
- Tested on: SW480
- assaySummary: cell viability (CellTiter-Glo) relative to plate median (fraction of plate median); higher = more viable cells
- recordedConditions: 5 µM; treatment time 24 h; reporter: 7TFP
Please reply with the number alone, leaving off any unit.

CC(=O)O[C@H]1C[C@@H](O)C(C)(C)[C@@H]2C[C@@H](OC(C)=O)[C@]3(C)[C@H](CC[C@@]4(C)[C@@H](c5ccoc5)OC(=O)[C@H]5O[C@@]534)[C@@]12C	0.945
CC(C)=CCc1c(O)cc2occ(-c3ccc4c(c3)OCO4)c(=O)c2c1O	0.972
COc1ccc2[nH]cc(CCNC(C)=O)c2c1	0.974

Request: Fill: cell viability (SW480) for this compound "Cc1ccc2c(c1)CC[C@H]1CC(=O)CC[C@]21C"
Response: 0.936

Request: // fetch cell viability; item: "CCC(=O)NCC[C@@H]1CCc2ccc3c(c21)CCO3" ; system: SW480
Response: 1.06

Request: Give cell viability; test system SW480; compound CC1=C(CCC(=O)O)c2cc3nc(cc4[nH]c(cc5[nH]c(cc1n2)c(C)c5C(C)O)c(C)c4C(C)O)C(C)=C3CCC(=O)O (centres undefined)
Response: 0.964

Request: Provide cell viability, system SW480, entry "C[C@]12C=CC(=O)C=C1CC[C@@H]1[C@@H]2[C@@H](O)C[C@@]2(C)[C@H]1CC[C@]2(O)C(=O)COP(=O)(O)O"
Response: 0.943

Request: Give reported cell viability for "FC(F)(F)c1ccccc1-n1ccnc1" (SW480)
Response: 1

Request: Consider the compound "CC(=O)N[C@@H](CC(=O)c1ccccc1N)C(=O)O" tested on SW480; state its cell viability.
Response: 1.01

====

- Tested on: SW480
- assaySummary: cell viability (CellTiter-Glo) relative to plate median (fraction of plate median); higher = more viable cells
- recordedConditions: 10 µM; treatment time 24 h; reporter: 7TFP
Just so you know, the groups by cell viability go like this: bucket A (below 0.9), bucket B (0.9 to below 1), bucket C (1 or more)

C=CC(=O)Nc1cccc(Oc2nc(Nc3ccc(N4CCN(C)CC4)cc3)ncc2Cl)c1	bucket C

Request: Into which category would you place "O=C(NOCC1CC1)c1ccc(F)c(F)c1Nc1ccc(I)cc1Cl" ?
Response: bucket C

Request: # classify by cell viability band: "N#C/C(=C\c1ccc(O)c(O)c1)C(=O)NCc1ccccc1"
Response: bucket B

Request: Kindly state the category for this compound: "N#CC(=C(/N)Sc1ccccc1N)/C(C#N)=C(\N)Sc1ccccc1N"
Response: bucket C

Request: Entry "COc1cc2nccc(Oc3ccc(NC(=O)NC4CC4)c(Cl)c3)c2cc1C(N)=O" belongs to which category?
Response: bucket B

====

Reported values of cell viability for individual entries
- Tested on: SW480
- assaySummary: cell viability (CellTiter-Glo) relative to plate median (fraction of plate median); higher = more viable cells
- recordedConditions: 5 µM; treatment time 24 h; reporter: 7TFP
# output: bare number, no unit

O=c1c(-c2ccccc2)coc2cc(O)cc(O)c12	0.993

Request: Report value only: cell viability, SW480, "O=C(O)c1c[nH]c2ccccc12"
Response: 0.941

====

- Test system: DLD1
- assaySummary: TCF/Wnt firefly luciferase reporter signal relative to plate median (fraction of plate median); higher = higher Wnt reporter signal
- recordedConditions: 5 µM; treatment time 24 h; reporter: 7TFP
measureName: TCF/Wnt firefly luciferase reporter signal

Here's what some known entries look like.
CC1(C)O[C@@H]2[C@@H](CO[C@@]3(COS(N)(=O)=O)OC(C)(C)O[C@@H]23)O1	1.12
CC(=O)[C@H]1CC[C@H]2[C@@H]3CC=C4C[C@@H](OC(=O)CCC(=O)O)CC[C@]4(C)[C@H]3CC[C@]12C	0.97
NC(=O)c1cccnc1	1.16
C=C1C2=CC(=O)O[C@@H](c3ccoc3)[C@]2(C)CC[C@@H]1[C@@]1(C)C=CC(=O)C(C)(C)[C@@H]1CC(=O)OC	1.01
CCN(CC)CC(=O)Nc1c(C)cccc1C	1.06

Request: State TCF/Wnt firefly luciferase reporter signal on DLD1. Entry: CC1=C(/C=C/C(C)=C/C=C/C(C)=C/C=C/C=C(C)/C=C/C=C(C)/C=C/C2=C(C)C(=O)CCC2(C)C)C(C)(C)CCC1=O [CANTHAXANTHIN (euglenanone)]
Response: 1.11

Request: Under DLD1: report TCF/Wnt firefly luciferase reporter signal of COc1c2ccoc2nc2c(OC)c(OCC(O)C(C)(C)O)ccc12 (stereo not drawn) .
Response: 1.03

Request: Give TCF/Wnt firefly luciferase reporter signal only, for "Cc1nc2ccccc2c(=O)[nH]1" , using DLD1 data.
Response: 1.01

Request: Print DLD1 TCF/Wnt firefly luciferase reporter signal for "Cn1nnnc1SCC1=C(C(=O)O)N2C(=O)[C@@H](NC(=O)[C@H](OC=O)c3ccccc3)[C@H]2SC1" .
Response: 0.922

Request: Report TCF/Wnt firefly luciferase reporter signal on DLD1 for this entry: "C[C@H](N)[C@H](O)c1cccc(O)c1"
Response: 0.918

Request: State, for DLD1, measured TCF/Wnt firefly luciferase reporter signal of the compound listed here: "O=C(O)c1cc(O)c2c(c1)[C@H]([C@H]1c3cc(C(=O)O)cc(O)c3C(=O)c3c(O[C@@H]4O[C@H](CO)[C@@H](O)[C@H](O)[C@H]4O)cccc31)c1cccc(O[C@@H]3O[C@H](CO)[C@@H](O)[C@H](O)[C@H]3O)c1C2=O"
Response: 1.08

Request: Would you please give the reported TCF/Wnt firefly luciferase reporter signal of CCc1ccc(CCOc2ccc(CC3SC(=O)NC3=O)cc2)nc1 (stereo not drawn) with DLD1?
Response: 1.01

====

- Test system: DLD1
- assaySummary: TCF/Wnt firefly luciferase reporter signal relative to plate median (fraction of plate median); higher = higher Wnt reporter signal
- recordedConditions: 5 µM; treatment time 24 h; reporter: 7TFP
measureName: TCF/Wnt firefly luciferase reporter signal
Give the figure by itself; no unit, no explanation.

Sample answers from the record:
CCN[C@@H]1C[C@H](N)[C@@H](O[C@H]2OC(CN)=CC[C@H]2N)[C@H](O)[C@H]1O[C@H]1OC[C@](C)(O)[C@H](NC)[C@H]1O	0.906
CN1CCc2cccc3c2[C@H]1Cc1ccc(O)c(O)c1-3	1.1
CCCC(=O)O[C@]1(C(=O)CO)CC[C@H]2[C@@H]3CCC4=CC(=O)CC[C@]4(C)[C@H]3[C@@H](O)C[C@@]21C	0.895
C/C=C1\[C@H]2C=C(C)C[C@]1(N)c1ccc(=O)[nH]c1C2	1.1
Cc1oc(C(C)O)c2c1C(=O)c1c(O)cccc1C2=O (stereo not given)	0.993

Request: Output TCF/Wnt firefly luciferase reporter signal of "COc1cc2oc3cc(OC)c(OC)c(CC=C(C)C)c3c(=O)c2c(O)c1CC=C(C)C"
Response: 1.1

Request: # return recorded TCF/Wnt firefly luciferase reporter signal for input O=C1NCC(=O)N2CCCC12 (stereo not given)
Response: 1.2

Request: Could you please provide reported TCF/Wnt firefly luciferase reporter signal for Cc1cccc(CN2CCN(C(c3ccccc3)c3ccc(Cl)cc3)CC2)c1 (stereo not given) ? Thanks!
Response: 1.02

Request: Given CCC1(C)CC(=O)NC1=O (stereo not given) , respond with its TCF/Wnt firefly luciferase reporter signal.
Response: 1.15

Request: Quick one: give measured TCF/Wnt firefly luciferase reporter signal for "OC[C@H]1O[C@@H](Oc2ccc(O)cc2)[C@H](O)[C@@H](O)[C@@H]1O"
Response: 0.963

====

- System: HCT116
- assaySummary: cell viability (CellTiter-Glo) relative to plate median (fraction of plate median); higher = more viable cells
- recordedConditions: 5 µM; treatment time 24 h; reporter: TCF4/Wnt
measureName: cell viability
Keep it simple and answer with nothing but the number.

Completed entries (count: 5):
Cc1ccc2c(c1)CC[C@H]1CC(=O)CC[C@]21C	1.05
CC[n+]1c(-c2ccccc2)c2cc(N)ccc2c2ccc(N)cc21	1.1
O=c1cc(-c2cc(O)c(O)c(O)c2)oc2cc(O)cc(O)c12	1.06
C[C@H]1CCC/C=C/C(=O)c2c(O)cc(O)cc2CC(=O)O1 [Dehydro-Curvularin]	1.08
CC(C)[N+]1(C)[C@@H]2CC[C@H]1C[C@@H](OC(=O)C(CO)c1ccccc1)C2 (stereo partly specified)	0.989

Request: Specify reported cell viability for the compound shown: CCc1c(O)cc(C(C)CC)oc1=O (stereo unspecified) [Germicidin]
Response: 0.92

Request: Give cell viability for "NC[C@H]1O[C@H](O[C@H]2[C@H](O[C@@H]3O[C@H](CO)[C@@H](O)[C@H]3O)[C@@H](O)[C@H](N)C[C@@H]2N)[C@H](N)[C@@H](O)[C@@H]1O"
Response: 0.996

Request: Read off the recorded cell viability for "CC(C)[C@H](N)C(=O)OCCOCn1cnc2c(=O)nc(N)[nH]c21"
Response: 0.879

Request: Query cell viability for CC1(C)C(=O)C=CC2(C)C1C=CC1(C)C2CCC2(C)C(c3ccoc3)OC(=O)C3OC312 (stereo unspecified)
Response: 1.1

Request: Given "COc1ccc(-c2cc(=O)c3c(OC)c(OC)c(OC)c(OC)c3o2)cc1OC" , respond with its cell viability.
Response: 0.914

Request: Answer with the recorded cell viability of CCC1(C)CC(=O)NC1=O (stereo unspecified) only.
Response: 1.09

Request: Kindly indicate its recorded cell viability. Item: c1ccc2c(c1)CCCC2C1=NCCN1 (stereo unspecified)
Response: 1.12

Request: Please look at this compound and report its cell viability: "CC(=O)N[C@@H](Cc1c[nH]c2ccccc12)C(N)=O"
Response: 0.831

Request: // fetch cell viability given entry CC(C)CCCCCCCCC1CC(=O)NC(CCC(=O)O)C(=O)NC(CC(C)C)C(=O)NC(CC(C)C)C(=O)NC(C(C)C)C(=O)NC(CC(=O)O)C(=O)NC(CC(C)C)C(=O)NC(CC(C)C)C(=O)O1 (stereo unspecified) [Surfactin B1]
Response: 0.925

Request: # return recorded cell viability for input CC(=O)N(O)CCCCCNC(=O)CC(O)(CC(=O)NCCCCCN(O)C(C)=O)C(=O)O [Arthrobactin]
Response: 1.06

Request: Tell me its cell viability given "CC(=O)/C(=C\c1ccccc1)CC(=O)O" as the entry.
Response: 1.03

Request: Return the recorded cell viability value; entry: "COc1ccc2c(c1)OC/C(=C/c1ccc(O)c(O)c1)C2=O"
Response: 1.01

Request: Give the reported cell viability for this compound. "COc1ccc(CN(CCN(C)C)c2ncccn2)cc1"
Response: 0.969

Request: Please list cell viability recorded for the compound "CC1(C)O[C@@H]2C[C@H]3[C@@H]4C[C@H](F)C5=CC(=O)C=C[C@]5(C)[C@H]4[C@@H](O)C[C@]3(C)[C@]2(C(=O)CO)O1"
Response: 1.03

Request: Read off the recorded cell viability for CCC(=O)C(CC)C(O)C(C)CC(C)C1OC(=O)CC2(O)CC=C(C)C(O2)/C(C)=C/CCCC(OC2CC(OC(N)=O)C(O)C(C)O2)/C=C\C(C)C(O)C1C (stereo unspecified)
Response: 1

Request: Output measured cell viability for this item: "COC(=O)/C(=C1/OC(=O)C(c2ccccc2)=C1O)c1ccccc1"
Response: 1.02

Request: Look up and report measured cell viability for this entry: CC1=CC(=O)CC(C)(C)C1(O)/C=C/C(C)=C\C(=O)O (mixture of isomers) [ABSCISIC ACID (cis,trans; )]
Response: 1.1

Request: State, in one line, measured cell viability of "CC(C)=CCC[C@@H](C)[C@H]1CC[C@@]2(C)C3=C(CC[C@]12C)[C@@]1(C)CC[C@H](O)C(C)(C)[C@@H]1CC3"
Response: 1.01

Request: Give cell viability for CN1Cc2c(N)cccc2C(c2ccccc2)C1 (stereo unspecified)
Response: 1.15
